Study Target: MAPK14 (human) (UniProt Q16539)
Sequence (Q16539 whole entry, looked up): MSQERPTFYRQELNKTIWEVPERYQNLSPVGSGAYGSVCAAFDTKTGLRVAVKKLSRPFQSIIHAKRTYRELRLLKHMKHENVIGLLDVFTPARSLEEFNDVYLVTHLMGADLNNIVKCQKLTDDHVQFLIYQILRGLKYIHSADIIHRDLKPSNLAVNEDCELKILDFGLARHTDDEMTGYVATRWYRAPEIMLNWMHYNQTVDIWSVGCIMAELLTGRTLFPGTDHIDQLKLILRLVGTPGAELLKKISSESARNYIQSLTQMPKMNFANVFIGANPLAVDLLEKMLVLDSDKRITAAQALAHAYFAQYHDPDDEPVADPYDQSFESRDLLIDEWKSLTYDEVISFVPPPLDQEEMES
pIC50: −log10 of the molar value.
Observable: pIC50

Mol Smiles	Observable	Experimental Result
Fc1ccc(Cl)c(-c2nc3occn3c2-c2ccnc(N[C@@H]3CN4CCC3CC4)n2)c1	pIC50	8.17

(P) Fc1ccc(-c2nc3sccn3c2-c2ccnc(N3CCCCC3)n2)cc1
(Q) O[C@@H](CNc1nccc(-c2c(-c3ccc(F)cc3)nc3occn23)n1)c1ccccc1
Would you let me know which has the greater pIC50 value, P or Q ? Mark your answer with the label of the selected entry. Q
(Q: 8.05, P: 6.28)
